Study target: purified 5-LO (Homo sapiens, UniProt P09917)
Sequence (P09917 whole entry): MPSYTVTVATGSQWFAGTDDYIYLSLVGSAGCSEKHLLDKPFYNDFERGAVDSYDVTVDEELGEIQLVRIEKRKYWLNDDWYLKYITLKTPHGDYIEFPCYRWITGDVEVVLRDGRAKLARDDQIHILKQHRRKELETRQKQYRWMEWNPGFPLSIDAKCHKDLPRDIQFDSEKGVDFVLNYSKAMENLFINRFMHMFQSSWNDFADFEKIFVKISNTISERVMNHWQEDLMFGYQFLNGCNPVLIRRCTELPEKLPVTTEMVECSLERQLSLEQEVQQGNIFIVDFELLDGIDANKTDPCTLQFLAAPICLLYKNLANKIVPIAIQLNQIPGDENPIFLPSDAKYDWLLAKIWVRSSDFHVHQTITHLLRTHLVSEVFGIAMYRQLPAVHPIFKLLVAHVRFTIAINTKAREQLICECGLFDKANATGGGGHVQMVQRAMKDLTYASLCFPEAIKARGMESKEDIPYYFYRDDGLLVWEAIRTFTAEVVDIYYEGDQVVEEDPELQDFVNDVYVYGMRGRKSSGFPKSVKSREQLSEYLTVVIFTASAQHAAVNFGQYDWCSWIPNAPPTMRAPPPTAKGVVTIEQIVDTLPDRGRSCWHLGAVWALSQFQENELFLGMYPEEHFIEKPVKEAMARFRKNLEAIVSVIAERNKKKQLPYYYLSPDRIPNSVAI
Measurement notes: Purified / human recombinant 5-LO activity (cell-free)
Assay type: biochemical
Condition notes: purified 5-LO under cell free conditions; mean ± SE, n = 3-4; read-out: Inhibition of purified 5-LO activity IC50 (µM) cell-free
Measure: IC50 (µM)
Kindly provide the numeric value in µM only, without the unit symbol.

# count of solved cases: 5
{"columns": ["Compound", "Unit of measurement", "IC50"],
 "data": [
  ["O=C(O)c1noc(-c2ccc(OCc3ccccn3)cc2)c1-c1ccc(Cl)cc1 [Compound 9gj]", "µM", 7.39],
  ["O=C(O)c1noc(-c2ccc(OCc3cccc(F)c3)cc2)c1-c1cccc(Cl)c1 [Compound 10bj]", "µM", 0.38],
  ["Cc1ccccc1COc1ccc(-c2onc(C)c2-c2ccc(Cl)cc2)c(O)c1 [Compound A, reference compound]", "µM", 1.9],
  ["Cc1cc(OCc2cccc(C#N)c2)ccc1-c1onc(C(=O)O)c1-c1ccc(Cl)cc1 [Compound 9dk]", "µM", 5.01],
  ["O=C(O)c1noc(-c2ccc(OCc3cccc(F)c3)cc2)c1-c1ccc(Cl)cc1 [Compound 9bj]", "µM", 0.38]
]}

Please examine the following record next.
Challenge: For O=C(O)c1noc(-c2ccc(OCc3ccccc3Cl)cc2)c1-c1ccc(Cl)cc1 [Compound 9ej] , write its IC50.
Response given: 6.11
